# Tested on: methionine N^α -acetyltransferase from S. cerevisiae
# experimentNotes: Effect of protein modification reagents on enzyme activity
# Assay type: biochemical, Saccharomyces cerevisiae
# testConditions: concentration not given
# Protocol: N^α -acetyltransferase activity was determined as previously described [Lee et al., J. Biol. Chem. 263:14948-14955 (1988)]. […] The partially dried membranes were placed in scintillation cocktail and counted with a Beckman LS 3801 scintillation counter. […]
readoutName: effect of reagent on M-N^α AT activity

> print(dat)
                                   molecule  reportedresult
1             NC(=O)CI [IAM, iodoacetamide]       inability
2  CCN1C(=O)C=CC1=O [NEM, N-ethylmaleimide]       inability
3  O=C(O)c1cc[c]([Hg][Cl])cc1 [pCMB, p-chloromercuribenzoate]       inability

---

# subjectOfTest: AAA1 N^α -acetyltransferase (N^α -AT) (Saccharomyces cerevisiae, UniProt P07347+P12945)
# Sequence (P12945 2-854 limits assumed): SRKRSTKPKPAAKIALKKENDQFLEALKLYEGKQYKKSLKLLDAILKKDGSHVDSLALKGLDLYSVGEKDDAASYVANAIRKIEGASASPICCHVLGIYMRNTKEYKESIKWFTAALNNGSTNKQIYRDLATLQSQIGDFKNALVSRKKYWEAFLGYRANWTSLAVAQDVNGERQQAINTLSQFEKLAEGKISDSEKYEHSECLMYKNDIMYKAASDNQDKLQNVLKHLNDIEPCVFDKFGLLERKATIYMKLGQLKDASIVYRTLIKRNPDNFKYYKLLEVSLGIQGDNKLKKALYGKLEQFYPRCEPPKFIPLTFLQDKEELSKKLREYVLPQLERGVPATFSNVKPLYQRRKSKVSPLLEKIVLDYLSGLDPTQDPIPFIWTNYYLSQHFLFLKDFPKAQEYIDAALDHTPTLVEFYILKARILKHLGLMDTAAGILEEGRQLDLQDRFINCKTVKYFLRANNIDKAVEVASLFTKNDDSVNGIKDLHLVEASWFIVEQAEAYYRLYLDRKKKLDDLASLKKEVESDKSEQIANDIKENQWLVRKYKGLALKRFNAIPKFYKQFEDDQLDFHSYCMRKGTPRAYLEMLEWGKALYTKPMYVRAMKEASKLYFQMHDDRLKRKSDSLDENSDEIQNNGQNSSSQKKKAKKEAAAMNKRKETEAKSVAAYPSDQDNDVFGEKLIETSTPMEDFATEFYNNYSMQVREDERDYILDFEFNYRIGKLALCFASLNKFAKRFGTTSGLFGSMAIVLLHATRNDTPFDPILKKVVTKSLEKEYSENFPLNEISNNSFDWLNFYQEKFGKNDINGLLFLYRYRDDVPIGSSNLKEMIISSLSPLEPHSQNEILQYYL
# Sequence (P07347 1-238): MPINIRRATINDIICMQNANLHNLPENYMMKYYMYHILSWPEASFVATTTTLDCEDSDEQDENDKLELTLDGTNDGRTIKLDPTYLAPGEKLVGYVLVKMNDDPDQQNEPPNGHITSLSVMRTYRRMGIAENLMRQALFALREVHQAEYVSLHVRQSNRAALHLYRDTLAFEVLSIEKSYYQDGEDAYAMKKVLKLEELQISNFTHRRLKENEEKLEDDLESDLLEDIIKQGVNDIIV
# experimentNotes: Relative activity of N^α -AT for N^α -acetylation of synthetic peptides
# Format: biochemical
# testConditions: Table 6, influence of the amino terminal residue
readoutName: Activity (%) (mean activity ± S.D.) N^a -AT
Express the result in % but write the number alone.

Would you please look over these solved cases?
> print(dat)
                                  substance  reportedresult
1  VIPETQKGVIFYESHGKLEYKDIP (VIPETQKGVIFYESHGKLEYKDIP)              69
2  MIPETQKGVIFYESHGKLEYKDIP (MIPETQKGVIFYESHGKLEYKDIP)              15
3  PIPETQKGVIFYESHGKLEYKDIP (PIPETQKGVIFYESHGKLEYKDIP)              70

Here's the next entry for you.
In: // returns reported Activity (%) (mean activity ± S.D.) N^a -AT for input YIPETQKGVIFYESHGKLEYKDIP (YIPETQKGVIFYESHGKLEYKDIP)
Out: 20

Just for reference, patent US5223421A is where these values come from.
